test: Inhibition of 12-O-tetradecanoylphorbol 13-acetate-induced transformation of mouse JB6 cells after 14 days by soft agar assay; format: functional, cell-based
Recorded measurements of IC50, one per entry

Example cases with answers are listed next.
compound	IC50
COc1cc([C@@H]2c3c(cc4c(c3OC)OCO4)[C@H](OC(C)=O)[C@H]3COC(=O)[C@@H]23)cc(OC)c1OC	> 4 µg/mL
COc1cc([C@H]2OC[C@H]3[C@@H]2CO[C@@H]3c2cc(OC)c(OC)c(OC)c2)cc(OC)c1OC	> 4 µg/mL
COc1cc([C@@H]2OC[C@@H]3C(=O)OC[C@@H]32)cc(OC)c1OC	> 4 µg/mL
COc1ccc([C@@H]2OC[C@@H]3[C@H]2CO[C@@H]3c2cc(OC)c(OC)c(OC)c2)cc1OC	> 4 µg/mL
COc1cc(C[C@H]2C(=O)OC[C@@H]2Cc2cc(OC)c3c(c2)OCO3)cc(OC)c1OC	> 4 µg/mL
COc1cc(C[C@H]2C(=O)OC[C@@H]2Cc2ccc3c(c2)OCO3)cc(OC)c1OC	> 4 µg/mL

Req: So what does the record say about IC50 for COc1cc([C@@H]2c3cc4c(cc3[C@H](OC(C)=O)[C@H]3COC(=O)[C@@H]23)OCO4)cc(OC)c1OC ?
Resp: 0.15 µg/mL

Req: So what does the record say about IC50 for COc1cc([C@@H]2OC[C@H]3[C@@H]2CO[C@H]3c2cc(OC)c3c(c2)OCO3)cc(OC)c1OC ?
Resp: > 4 µg/mL

Req: So what does the record say about IC50 for COc1cc([C@H]2OC[C@H]3[C@@H]2CO[C@H]3c2cc(OC)c(OC)c(OC)c2)cc(OC)c1OC [EPIYANGAMBIN] ?
Resp: 0.4 µg/mL

Req: So what does the record say about IC50 for COc1cc2c(cc1OC)C(=O)N(C)CC2 ?
Resp: > 4 µg/mL
